Tested on: Quadruplex DNA
Test: Binding affinity to G-quadruplex telomeric DNA F21T (5'-duplex GGG TTAGGG TTAGGG TTAGGG-3') (unknown origin) assessed as stabilization by measuring change in melting temperature at 10 uM in potassium buffer by FRET melting assay
Type: nucleic-acid assay
Reported Metric: ΔTm (°C)
Answer in °C, number only, no unit symbol.

CN1CCN(c2ccc(N3C(=O)c4ccc5c6c(ccc(c46)C3=O)C(=O)N(c3ccc(N4CCN(C)CC4)cc3)C5=O)cc2)CC1 : 1.4
CN1CCN(CCCN2C(=O)c3ccc4c5c(ccc(c35)C2=O)C(=O)N(CCCN2CCN(C)CC2)C4=O)CC1 : 20
CN1CCN(c2cccc(N3C(=O)c4ccc5c6c(ccc(c46)C3=O)C(=O)N(c3cccc(N4CCN(C)CC4)c3)C5=O)c2)CC1 : 6.4

Okay, next one:
stdin: Lab note: need ΔTm for `C[n+]1ccc(CN2C(=O)c3ccc4c5c(ccc(c35)C2=O)C(=O)N(Cc2cc[n+](C)cc2)C4=O)cc1` on Quadruplex DNA, anyone have it?
stdout: 13
